# assay_overview: Solubility of acyclovir in glycerol formal/water and glycerol formal/propylene glycol/water mixtures
# Format: physicochemical
# test_context: 90% glycerol formal in water, organic solvent or mixture; 90 percent by volume glycerol formal in water; room temperature, stirred 2 hours
endpoint: solubility at 2 h (µg/mL)

>>> df
                                   compound  reading
0  Nc1nc2c(ncn2COCCO)c(=O)[nH]1 [acyclovir, 9-[(2-hydroxyethoxy)methyl]guanine]     2970

###

# assay_overview: Solubility of acyclovir in glycerol formal/water and glycerol formal/propylene glycol/water mixtures
# Format: physicochemical
# test_context: 50% glycerol formal in water, organic solvent or mixture; 50 percent by volume glycerol formal in water; room temperature, stirred 2 hours
endpoint: solubility at 2 h (µg/mL)

>>> df
                                   compound           endpoint  reading
0  Nc1nc2c(ncn2COCCO)c(=O)[nH]1 [acyclovir, 9-[(2-hydroxyethoxy)methyl]guanine]  solubility at 2 h     4370
